The values you see were collected from PubChem BioAssay (NCI).

Listing of recorded growth inhibition by entry.
assay: NCI Yeast Anticancer Drug Screen. Data for the sgs1 mgt1 strain (AID 161);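 further: 0% = growth of cultures given vehicle only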; settings: S. cerevisiae sgs1 mgt1 strain, active compounds read high; at 50.0 µM unless noted
The panel holds about 79,000 compounds, 15% with a hit somewhere; the sample as a whole holds those more often.

{"MOLECULE": "C=C1COC(O)(C2OCOC(C3CC(=O)NC(=O)C3)C2O)C1C (stereo unspecified)", "growth inhibition / %": 91.5}
{"MOLECULE": "O=Cc1ccc(OC(=O)Nc2ccc([N+](=O)[O-])cc2)cc1", "growth inhibition / %": 33.4}
{"MOLECULE": "CCCN=C(N)C(C)=O", "growth inhibition / %": -11.1}
{"MOLECULE": "C/C(CC(=O)Nc1ccc(Cc2ccc(Br)cc2)cc1)=N/Nc1ccc([N+](=O)[O-])cc1[N+](=O)[O-]", "growth inhibition / %": 31.3}
{"MOLECULE": "C=C(C)C(=NC(C)(C)C)Nc1ccc(C(=O)OCC)cc1", "growth inhibition / %": -11.8}
{"MOLECULE": "CCCCCCCCOC(=O)Nc1ccc(S(=O)(=O)NC2CCCCC2)cc1", "growth inhibition / %": 14.1}
{"MOLECULE": "O=C(Nc1ccc(Nc2ccc3c(c2)C(=O)c2ccccc2C3=O)c2c1C(=O)c1ccccc1C2=O)c1ccccc1", "growth inhibition / %": -15.3}
{"MOLECULE": "CCC(=O)NC(Nc1ccccc1F)(C(F)(F)F)C(F)(F)F", "growth inhibition / %": -18.1}
{"MOLECULE": "CCCCOC(=O)NC(Nc1ccc(S(N)(=O)=O)cc1)(C(F)(F)F)C(F)(F)F", "growth inhibition / %": 2.95}
{"MOLECULE": "Cc1c(Cl)cccc1NC(=O)C(C)NCC(C)C (stereo unspecified)", "growth inhibition / %": -6.05}
{"MOLECULE": "COc1ccc(NC(Nc2ccc(OC)cc2)C(Cl)(Cl)Cl)cc1", "growth inhibition / %": 13}

====

assay: NCI Yeast Anticancer Drug Screen. Data for the bub3 strain (AID 167); conditions: S. cerevisiae bub3 mutant strain, active compounds read high; at 50.0 µM unless noted
Compounds without any hit were thinned out: in the full panel of roughly 79,000, 15% have a hit. Where a SMILES comes first, the peptide text is derived from it. The star is where a group is joined. Cbz = O=C(OCc1ccccc1)*
PARAMETER: growth inhibition (%)

{"MOLECULE": "CN(C)c1nc(S(C)(=O)=O)nc2nc(Cl)[nH]c12", "NUMBER": 3.65}
{"MOLECULE": "COc1cc([N+](=O)[O-])c(S(=O)(=O)O)cc1NS(=O)(=O)c1ccc(C)cc1", "NUMBER": 1.4}
{"MOLECULE": "COc1ccc2ncccc2c1[N+](=O)[O-]", "NUMBER": -23.4}
{"MOLECULE": "CC1(C)OC(=O)N=C1c1ccccc1Cl", "NUMBER": -15.6}
{"MOLECULE": "CCCc1ccc(C)c(CCC)c1O", "NUMBER": -4.05}
{"MOLECULE": "CCOC(CN)(OCC)c1ccncc1", "NUMBER": 11.2}
{"MOLECULE": "CC(=O)NC1C(OCc2ccccc2)OC(CO)C(O)C1OCC(=O)NC(C)C(=O)NC(CCC(=O)NCCCCCNc1c2ccccc2nc2cccc([N+](=O)[O-])c12)C(N)=O (stereo not given)", "NUMBER": 53.5}
{"MOLECULE": "O=C(c1ccccc1)C1(c2ccccc2)OC1(C(=O)c1ccccc1)c1ccccc1 (stereo not given)", "NUMBER": -3.3}
{"MOLECULE": "CC(C)(CBr)CC(=O)NC1CCCCC1", "NUMBER": 10.2}
{"MOLECULE": "O=C1CC(Br)C(c2ccccc2)(c2ccccc2)O1 (stereo not given)", "NUMBER": 14.2}
{"MOLECULE": "COC(=O)C1=CN(CCc2ccc(O)cc2)C(=O)C2C1CC(O)C2C (stereo not given)", "NUMBER": -4.55}
{"MOLECULE": "CC(C)N(Cc1ccccc1)S(=O)(=O)c1n[nH]c(C(C)(C)C)n1", "NUMBER": -6.75}
{"MOLECULE": "Nc1ccc(S(=O)(=O)Nc2cc(C(F)(F)F)cc(C(F)(F)F)c2)cc1", "NUMBER": 10.7}
{"MOLECULE": "CCOC(=O)c1ccc(NC(=S)NC(=O)C(C)Oc2ccccc2)cc1 (stereo not given)", "NUMBER": 37.8}
{"MOLECULE": "CC1(c2ccccc2)C(=O)c2ccccc2-c2ccccc21 (stereo not given)", "NUMBER": 24.7}
{"MOLECULE": "COC(=O)C(NC(=O)c1ccccc1)C(c1ccc(Cl)cc1)P(=O)(OC)OC (stereo not given)", "NUMBER": -7.85}
{"MOLECULE": "COc1ccc(C=O)cc1OCc1ccccc1", "NUMBER": -18.2}
{"MOLECULE": "COC(=O)N/N=C(/CCC(=O)Nc1ccc(C)c(C)c1)CC(=O)C(C)(C)C", "NUMBER": 19.1}
{"MOLECULE": "O=C(c1cccs1)N(C(=S)N1CCN(c2ccccc2)CC1)C1CCCCC1", "NUMBER": -26.8}
{"MOLECULE": "O=C(OC1C2C=COC(OC3OC(CO)C(O)C(O)C3O)C2C2(CO)OC12)c1ccc(O)cc1 (stereo not given)", "NUMBER": 1.8}
{"MOLECULE": "Oc1ccc(/C=C\\c2cnccn2)cc1", "NUMBER": 30.8}
{"MOLECULE": "CN(C)CCN(C)C(=O)C1CCCN1C(=O)OCc1ccccc1 (stereo not given)", "NUMBER": -37.6}
{"MOLECULE": "COC(=O)C(CC(C)C)NC(=O)C(CC(N)=O)NC(=O)C(NC(=O)OCc1ccccc1)C(C)C (stereo not drawn) (Cbz-Val-Asn-Leu-OMe; configuration not given here)", "NUMBER": 9.3}
{"MOLECULE": "C=CCN1C(=O)CS/C1=N/NC(=O)C(O)(c1ccccc1)c1ccccc1", "NUMBER": -24.3}
{"MOLECULE": "CC(CN(CP(=O)([O-])[O-])CP(=O)([O-])[O-])N(CP(=O)([O-])[O-])CP(=O)([O-])[O-].N.N.[Pt+2] (stereo not given)", "NUMBER": 9.9}
{"MOLECULE": "Cc1ccc(OCc2ccc([N+](=O)[O-])cc2)cc1", "NUMBER": -16.4}
{"MOLECULE": "Cc1nc(Nc2cccc(Cl)c2)c2cnn(-c3ccc(Cl)cc3)c2n1", "NUMBER": -0.45}
{"MOLECULE": "C[N+](C)(CCCCCCCCCC[N+](C)(C)CC(=O)c1ccccc1)CC(=O)c1ccccc1", "NUMBER": 0.4}
{"MOLECULE": "C(/C=N/Nc1ccccc1)=N\\Nc1ccccc1", "NUMBER": -9.85}
{"MOLECULE": "CCNc1cccc(C)c1", "NUMBER": 12.8}
{"MOLECULE": "CC1(C)OCC(N)[C@@H](O)CO1 (stereo not given in full)", "NUMBER": 3.5}
{"MOLECULE": "NC(CSS(=O)(=O)O)=NCCCOCc1ccccc1", "NUMBER": 18.6}
{"MOLECULE": "Cc1ccc(C(=O)c2ccc([N+](=O)[O-])cc2)cc1", "NUMBER": 8.3}
{"MOLECULE": "CC(Oc1c(Cl)cc(Cl)cc1Cl)C(=O)O (stereo not given)", "NUMBER": -34.9}
{"MOLECULE": "CC(=O)CC(=O)Nc1nc2ccccc2s1", "NUMBER": -7.5}
{"MOLECULE": "CC(=O)C(CCC#N)(CCC#N)C(C)=O", "NUMBER": -1.45}
{"MOLECULE": "COC(=O)C(Cc1ccccc1)N=Cc1c(O)c(O)c(C(C)C)c2cc(C)c(-c3c(C)cc4c(C(C)C)c(O)c(O)c(C=NC(Cc5ccccc5)C(=O)OC)c4c3O)c(O)c12 (stereo not given)", "NUMBER": 16.1}
{"MOLECULE": "COC(=O)Nn1c(C)c(C(=O)OC)c(C(=O)Nc2ccccc2)c1-c1ccccc1", "NUMBER": 5.05}
{"MOLECULE": "CCCCC/C(C=O)=C\\c1ccccc1", "NUMBER": 18}
{"MOLECULE": "O=C(Cc1ccccc1)c1ccccc1C(=O)NCc1ccncc1", "NUMBER": 9}
{"MOLECULE": "Nc1nc(=S)c2c(ncn2CCO)[nH]1", "NUMBER": -16.1}
{"MOLECULE": "CC(=O)OCCOCNC(=S)N/N=C(\\C)c1ccco1", "NUMBER": -4.95}
{"MOLECULE": "CCOc1ccc(N=Cc2ccc3cc(C)ccc3n2)cc1", "NUMBER": -1.8}
{"MOLECULE": "Cc1[nH]c(=S)[nH]c1C", "NUMBER": 15.7}
{"MOLECULE": "Cc1cc(N(CCC#N)CCC#N)ccc1N=Nc1ccc(S(N)(=O)=O)cc1", "NUMBER": 0.55}
